These entries and their values trace back to patent US20150004189A1.

# MEASUREMENT_TARGET: HLA-DP molecule DPB1*2001 (human)
# ASSAY_OVERVIEW: inhibition of radiolabeled peptide binding to purified HLA-DP
Please go through the items and note down their IC50.
Just the number please, in nM, no unit attached.

Given the binder SDAKTLVLNIKYTRP [Lol p 3 peptide, position 11, SDAKTLVLNIKYTRP (Peptide ID 3324.1142)] , what is its reported IC50?
24000

And for LWEVKSAKPLTGPMN [Lol p 3 peptide, position 51, LWEVKSAKPLTGPMN (Peptide ID 3337.0031)] ?
671

And for PAAAYATATPAAATA [Lol p 5 1 peptide, position 306, PAAAYATATPAAATA (Peptide ID 3324.1184)] ?
611

And for QKLMEDINVGFKAAV [Poa p 5 peptide, position 51, QKLMEDINVGFKAAV (Peptide ID 3324.1580)] ?
2180
